# n (binding stoichiometry) annotations
Target Of Assay: T1, Human CD2 (human, UniProt P06729 25-209)
T1 construct: also called recombinant human CD2; CD2 extracellular domain
T1 sequence: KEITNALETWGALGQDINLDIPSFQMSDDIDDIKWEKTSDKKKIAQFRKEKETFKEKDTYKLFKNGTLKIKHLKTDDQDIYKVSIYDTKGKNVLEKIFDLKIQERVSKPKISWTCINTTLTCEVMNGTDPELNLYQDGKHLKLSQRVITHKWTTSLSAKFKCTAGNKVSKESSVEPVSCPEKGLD
Test Method Notes: isothermal titration calorimetry; 100 uM CD2 titrated into 10 uM CD58 variant in HBS
Protocol: To ensure the binding affinity remained uncompromised by the additional of the stabilizing disulfide variance, isothermal calorimetry (ITC) was performed on the resulting recombinant CD58 proteins to determine their apparent KD and binding stoicheometry (n) to recombinant human CD2. Briefly, recombinant human CD2 and recombinant human CD58 variants were dialyzed into HEPES-buffered saline (HBS). […] Titrations of CD2 into HBS were used as a reference and KD and n determined from the resulting data.
Just the number.

Binder: IgV V45C_M114C (ligand, Disulfide-stabilised variant) SQQIYGVVYGNVTFHCPSNVPLKEVLWKKQKDKVAELENSEFRAFSSFKNRVYLDTVSGSLTIYNLTSSDEDEYEMESPNITDTCKFFLYVLESGGGGSHHHHHHHH
Experimental Value: 0.88

Now turn to the next binder.
(Q) Please report the recorded n (binding stoichiometry) for CD58_IgV (ligand, Recombinant, made in HEK293 cells; also called CD58 domain 1; IgV domain of CD58 (wild type)) SQQIYGVVYGNVTFHVPSNVPLKEVLWKKQKDKVAELENSEFRAFSSFKNRVYLDTVSGSLTIYNLTSSDEDEYEMESPNITDTMKFFLYVLESGGGGSHHHHHHHH .
(A) 0.96
